- assay.info: qHTS assay to identify small molecule antagonists of the estrogen receptor alpha (ER-alpha) signaling pathway - cell viability counter screen (AID 743074);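 note: HEK293 cells carrying ER-alpha-UAS-bla reporter stimulated with 17beta-estradiol; % is set by controls: 0 for no effect and ±100 for the full control effect; nearly all actives have a fitted effect of over 45% in size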
- condition.context: ERalpha-bla HEK293 viability, CellTiter-Glo luminescence, 18 h; series mostly up to 69.4 µM
Results filed as inconclusive are left out. Calls of active or inactive are those of the source. Calls come from the whole dose curve.
quantity.name: activity, negative = cytotoxicity

Answered cases to consult:
[
  {
    "molecule": "CCOc1cc(OCC)c(C(C)=O)cc1OCC",
    "result": "inactive"
  },
  {
    "molecule": "NCCOCCOCCN",
    "result": "inactive"
  },
  {
    "molecule": "CC(C)C[C@H](NC(=O)[C@H](Cc1ccccc1)NC(=O)c1cnccn1)B(O)O",
    "result": "inactive"
  },
  {
    "molecule": "COc1ccc(C(=O)Nc2ccccc2)cc1[N+](=O)[O-]",
    "result": "inactive"
  },
  {
    "molecule": "CS(C)=O",
    "result": "inactive"
  }
]

List activity, negative = cytotoxicity for every entry below, keeping the order given.
1. CC(=O)OCC(=O)[C@@]1(O)CC[C@H]2[C@@H]3CCC4=CC(=O)C=C[C@]4(C)[C@@]3(F)[C@@H](O)C[C@@]21C
2. CCCCCC1CCC(=O)O1 (stereo not given)
3. COC(=O)C(C)(C)C

1: inactive; 2: inactive; 3: inactive

List activity, negative = cytotoxicity for every entry below, keeping the order given.
1. C=CC(C)(O)CC/C=C(/C)CCC=C(C)C (stereo not given)
2. O=C(O)c1ccccc1-n1cc(C(=O)O)c(=O)c2cc(Nc3c(F)cc(F)cc3Cl)c(Cl)cc21

inactive
inactive

List activity, negative = cytotoxicity for every entry below, keeping the order given.
1. CC(C)CC(C)(C)C
2. Clc1nc2ccccc2nc1Cl
3. Nc1cccc2c(=O)[nH][nH]c(=O)c12
4. CCc1ccc(C(=O)C(C)CN2CCCCC2)cc1 (stereo not given)
5. CC(=O)Nc1ccccc1O

1: inactive; 2: inactive; 3: inactive; 4: inactive; 5: inactive

###

- assay.info: qHTS assay to identify small molecule antagonists of the sonic hedgehog signaling (Shh) pathway - cell viability counter screen (AID 1259367); note: nearly all actives have a fitted effect of over 55% in size
- condition.context: NIH/3T3 Gli1-Luc viability, CellTiter-Fluor, 24 h; series mostly up to 92.4 µM
Inconclusive results are not listed. Calls of active or inactive are those of the source. Calls come from the whole dose curve; as a rule, active = well fitted cell-killing curve with a large enough effect in the repeat runs; inconclusive = weak or mixed curves, or effect the other way; inactive = no such curve, though single readings can be large or run the other way.
The reply should be one of these categories: active, inactive

[
  {
    "entry.smiles": "Cc1cc(C)n(CO)n1",
    "answer.label": "inactive"
  }
]

State the result this test recorded for CC(C)CCCCCCCOC(=O)c1ccc(C(=O)OCCCCCCCC(C)C)c(C(=O)OCCCCCCCC(C)C)c1 .
active

Moving on to the next compound: CC1(C)CC(O)CC(C)(C)N1[O]
inactive

Moving on to the next compound: CCCN(C1CCN(C(=O)C2CCNCC2)CC1)[C@@H]1CCc2ccc(OC)cc2C1
inactive

###

Please go through the items and note down their max response.
- assay.info: qHTS RealTime-Glo MT Cell Viability Assay in HEK293 cells - 40 hour (AID 1224874); note: % is set by controls: 0 for no effect and ±100 for the full control effect; nearly all actives have a fitted effect of over 50% in size
- condition.context: RealTime-Glo luminescence; hits give low values
Inconclusive results are not listed.
Numbers only, in %.

[
  {
    "molecule": "SCCOCCOCCS",
    "max response (%)": -3.19
  }
]

List max response for every entry below, keeping the order given.
1. CC(C)=CCCC(C)C=O (configuration not stated)
2. CC(Cc1ccccc1)(NC(=O)CN)c1ccccc1 (configuration not stated)
3. CC(=O)Nc1cccc(N)c1
4. C=CC(C)CCC=C(C)C (configuration not stated)
5. CCCCOc1ccc(N)cc1
6. CCCCOC(=O)CC#N
7. O=C(O)c1cc(C(=O)O)c(C(=O)O)cc1C(=O)O
8. CC(=O)Oc1cccc2c1C(=O)c1c(OC(C)=O)cc(C(=O)O)cc1C2=O

[3.8, -3.14, 15, 0.513, 0.387, 7.32, 0.796, -10.8]

List max response for every entry below, keeping the order given.
1. C[C@H](N)C(=O)N[C@@H](C)C(=O)NC1[C@H]2CN(c3nc4c(cc3F)c(=O)c(C(=O)O)cn4-c3ccc(F)cc3F)C[C@@H]12 (some centres not stated)
2. NC(=O)c1ccccc1
3. CCCC(=O)OCc1ccccc1
4. CCCCCCCCCCCCCCCCN
5. Nc1ccc(F)cc1F
6. O=P(c1ccccc1)(c1ccccc1)c1ccccc1

1. 0.749
2. 1.7
3. 5.95
4. 11.5
5. -13.8
6. -19

List max response for every entry below, keeping the order given.
1. Nc1ccc(-c2ccc(F)cc2)cc1
2. N#CCCCC(C#N)CCC#N (configuration not stated)
3. Cc1c(Cl)cccc1Nc1ccccc1C(=O)O
4. c1ccc(CCNc2nc(-c3ccccc3)cs2)cc1
5. CC(C)=CCC/C(C)=C/C=N/O
6. Cc1ccccc1CCO

-22.4
17.1
-5.01
-22.9
-25.1
5.71
